These measurements were taken from paper PMC9090415.

# subject_of_test: UniProt:Q8ILY1
# experiment_description: Fluorescence-based high-throughput DNA polymerase assay (molecular beacon), primary screen and dose-response
# Assay type: biochemical
# cond: DRC-1; read at 90'; concentration 20
Would you mind telling me the reported % inhibition Apol 90' 20 of each entry?
One number for each entry, in %.

Cc1ccsc1Cn1c(C)ccc1C
21.1278
CC(C)CC(C(=O)O)N1C(=O)C2C3C=CC(C2C1=O)C1C(=O)N(C(CC(C)C)C(=O)O)C(=O)C31 (stereo not drawn)
26.7933
O=C(CCc1csc(NC(=O)Nc2ccccc2)n1)Nc1nc2ccccc2s1
59.1025
CCCc1ccc(Oc2coc3cc(OC)ccc3c2=O)cc1
14.1885
Cn1nc(-c2nnc(-c3ccccc3F)o2)c2c1CCN(C(=O)c1ccccc1Cl)C2
54

Give one value of % inhibition Apol 90' 20 per listed molecule.
1. Cn1nc(-c2nc(-c3ccccc3)no2)c2c1CCN(C(=O)Cc1cccs1)C2
2. CC(=O)Nc1cc(C(=O)c2cccs2)nn(-c2ccc(Cl)cc2)c1=O
3. COc1ccccc1CC(=O)N1CCc2c(nc3cc(-c4ccccc4Cl)[nH]n3c2=O)C1
4. COc1ccc(C2CC(c3ccc(Cl)cc3Cl)Nc3nc(N)nn32)cc1OC (stereo not drawn)

1. 37
2. 14.4381
3. 40
4. 51

----------
Would you mind telling me the reported DNA Pol of each entry?
# subject_of_test: UniProt Q8ILY1
# experiment_description: Fluorescence-based high-throughput DNA polymerase assay (molecular beacon), primary screen and dose-response
# Format: biochemical
# cond: primary screen value, head "DNA Pol", unit not given; 90 min, 10 µM
# Excerpt: The HT assay employs a molecular beacon, a stem-loop DNA template with a Cy3 dye and the Black Hole Quencher on the 3′ and 5′ ends of the DNA, respectively. Pf-apPOL concentration is based on a calculated absorptivity of ε280 = 56750 M^−1 cm^−1. […] To identify apPOL inhibitors we utilised our previously developed high-throughput DNA polymerase assay. […] The assay accurately recapitulates the kinetic behaviour of apPOL, as measured through more conventional low-throughput gel-based assays. […]

Worked examples, 2 molecules total:
CCCCCCCCCCCCCCCCCC(=O)CCN(C)C
46
CCOc1cccc2cc(C(=O)Nc3nnc(-c4ccno4)o3)oc12
79

Give one value of DNA Pol per listed molecule.
1. Cc1cc(C)c2c(O)nc(SCC(=O)c3ccc(O)c(O)c3)nc2n1
2. Cc1cccc(CC(=O)N2CCc3c(nc4cc(-c5ccccc5)[nH]n4c3=O)C2)c1
3. O=C(O)c1ccc(-c2nc3cc(-c4ccc5nc(-c6ccc(C(=O)O)cc6)[nH]c5c4)ccc3[nH]2)cc1
4. O=c1[nH]c2ccc(Br)cc2c(-c2ccccc2)c1C1=NNC(c2ccco2)C1 (centres unmarked)
5. O=C(Nc1c2c(nn1-c1ccc(Oc3ccccc3)cc1)CSC2)c1ccco1
6. CCCCOC(=O)CCCCCN1C(=O)C(=Cc2ccc(OC)cc2)SC1=S

1. 85
2. 49
3. 68
4. 43
5. 57
6. 27

----------
# subject_of_test: UniProtKB Q8ILY1
# experiment_description: Fluorescence-based high-throughput DNA polymerase assay (molecular beacon), primary screen and dose-response
# Format: biochemical
# cond: DRC-1; 90'; conc 40
observable: % inhibition Apol 90' (%)
One number for each entry, in %.

Give one value of % inhibition Apol 90' per listed compound.
1. Cc1ccc(NC(=O)Cn2ccc3c(=O)[nH]ccc32)c(C)c1 [KU0205125]
2. CCOc1nc2cccc(C(=O)OC(C)OC(=O)OC3CCCCC3)c2n1Cc1ccc(-c2ccccc2-c2nnn[nH]2)cc1 (stereo not shown) [Molecule 94]
3. Cc1ccc(CNC(=O)c2cnn3c(O)cc(CSc4ccc(Cl)cc4)nc23)cc1 [Molecule 99]
4. Cc1cc(C)c2c(c1)C1C=CCC1C(c1ccc(C(=O)O)cc1)N2 (stereo not shown) [Molecule 102]
5. C=CC1=C(C)c2cc3[nH]c(cc4nc(cc5[nH]c(cc1n2)c(C)c5CCC(=O)O)C(CCC(=O)O)=C4C)c(C)c3C=C [Molecule 91]
6. Cc1cccc(NC(=O)Cn2ccc3c(=O)[nH]ccc32)c1C [Molecule 11, O=C(Cn1ccc2c1cc[nH]c2=O)Nc1cccc(c1C)C]
7. N#CC(C#N)=C1SCN(c2cccc(Cl)c2)CS1 [Molecule 29, N#CC(=C1SCN(CS1)c1cccc(c1)Cl)C#N]

1. 74.6586
2. 93.9408
3. 92.0772
4. 86.2676
5. 94.7622
6. 91.1147
7. 87.9667

----------
# subject_of_test: P. falciparum apicoplast DNA polymerase (Pf-apPOL) (Plasmodium falciparum)
# experiment_description: Fluorescence-based high-throughput DNA polymerase assay (molecular beacon), primary screen and dose-response
# Assay type: biochemical
# cond: DRC-2; 90'; concentration 80
Assign Y to entries whose % inhibition ApPOL 90' meets or exceeds 70%; assign N to the rest.

Worked set:
CCOc1ccc(/C=C2\N=C(c3cc([N+](=O)[O-])cc([N+](=O)[O-])c3)OC2=O)cc1 [Molecule 97]
Y
COc1ccc(S(=O)(=O)/N=C2\NC(=O)/C(=C3\C(=O)Nc4ccc([N+](=O)[O-])cc43)S2)cc1 [KU0054985]
Y
O=C1NCCCn2cc(S(=O)(=O)Nc3ccccc3)cc21 [KU0214835]
Y

Is % inhibition ApPOL 90' at least 70%? Consider CCCCCCCCCCCCCCCCCC(=O)CCN(C)C [KU0271928] N

Is % inhibition ApPOL 90' at least 70%? Consider Cc1ccc(NC(=O)Cn2ccc3c(=O)[nH]ccc32)cc1F [Molecule 48, O=C(Cn1ccc2c1cc[nH]c2=O)Nc1ccc(c(c1)F)C] N

Is % inhibition ApPOL 90' at least 70%? Consider CSC1=C(C#N)C(=C(C#N)C#N)NC(c2ccccc2)=N1 [Molecule 2, CSc1nc([nH]c(=C(C#N)C#N)c1C#N)c1ccccc1] Y

Is % inhibition ApPOL 90' at least 70%? Consider O=C(Nc1ccc2c(c1)Cc1cc(NC(=O)c3ccco3)ccc1-2)c1ccco1 [KU0038977] N

Is % inhibition ApPOL 90' at least 70%? Consider Cc1cc(C)cc(-n2nc3c(c2NC(=O)c2ccco2)CSC3)c1 [KU0055926] Y

Is % inhibition ApPOL 90' at least 70%? Consider COc1ccc(-c2occ(C(=O)O)c2C(=O)O)cc1 [KU0021536] Y

Is % inhibition ApPOL 90' at least 70%? Consider COc1ccc(NC(=O)Cn2ccc3c(=O)[nH]ccc32)cc1Cl [Molecule 10, COc1ccc(cc1Cl)NC(=O)Cn1ccc2c1cc[nH]c2=O] N

Is % inhibition ApPOL 90' at least 70%? Consider Cn1nc(-c2nc(-c3ccccc3)no2)c2c1CCN(C(=O)Cc1cccs1)C2 [Molecule 58] N

Is % inhibition ApPOL 90' at least 70%? Consider CC(=O)Nc1cc(C(=O)NC(C)C)c2ccc(C)nc2c1 [KU0206312] Y

Is % inhibition ApPOL 90' at least 70%? Consider O=C(CSc1nc2ccccc2s1)Nc1ncc([N+](=O)[O-])s1 [KU0019667] N

Is % inhibition ApPOL 90' at least 70%? Consider O=C(O)CCS(=O)(=O)c1ccc(-c2ccc(S(=O)(=O)CCC(=O)O)cc2)cc1 [Molecule 32] N

Is % inhibition ApPOL 90' at least 70%? Consider O=c1cc(-c2ccccc2Cl)oc2c(NS(=O)(=O)c3cc(Cl)cc(Cl)c3O)ccc(O)c12 [KU0104277] Y

Is % inhibition ApPOL 90' at least 70%? Consider O=C(Cc1cc(=O)[nH]c(SCc2ccccc2)n1)Nc1ccc2c(c1)OCO2 [Molecule 46] N

----------
# subject_of_test: P. falciparum apicoplast DNA polymerase (Pf-apPOL) (Plasmodium falciparum, UniProt Q8ILY1)
# Sequence (Q8ILY1 entry or part of it): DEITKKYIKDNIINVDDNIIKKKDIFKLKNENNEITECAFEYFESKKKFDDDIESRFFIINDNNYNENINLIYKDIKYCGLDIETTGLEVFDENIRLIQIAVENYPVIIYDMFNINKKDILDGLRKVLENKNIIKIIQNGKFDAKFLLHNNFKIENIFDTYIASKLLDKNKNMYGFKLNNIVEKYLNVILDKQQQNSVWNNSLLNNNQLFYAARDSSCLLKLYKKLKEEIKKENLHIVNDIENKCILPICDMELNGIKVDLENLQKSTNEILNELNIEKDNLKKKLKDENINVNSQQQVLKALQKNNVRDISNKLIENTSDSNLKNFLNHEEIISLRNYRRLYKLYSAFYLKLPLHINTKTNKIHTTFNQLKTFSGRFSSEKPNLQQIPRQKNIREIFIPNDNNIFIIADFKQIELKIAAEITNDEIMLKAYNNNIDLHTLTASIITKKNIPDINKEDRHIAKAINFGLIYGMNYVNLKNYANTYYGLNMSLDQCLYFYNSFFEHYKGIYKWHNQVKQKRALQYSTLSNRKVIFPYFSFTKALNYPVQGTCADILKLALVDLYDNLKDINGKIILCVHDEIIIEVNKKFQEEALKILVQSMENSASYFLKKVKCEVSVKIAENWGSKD
# experiment_description: Fluorescence-based high-throughput DNA polymerase assay (molecular beacon), primary screen and dose-response
# Type: biochemical
# cond: conc 40 (unit not given); 5'; DRC-2
observable: % inhibition Apo pol 5' (%)
One number for each entry, in %.

O=[N+]([O-])c1cc2c(cc1CN1CCN(c3cccc(Cl)c3)CC1)OCO2
45
CN(C)C=CC(=O)c1ccccn1
50
O=C(Nc1nnc(-c2cccs2)o1)c1ccc([N+](=O)[O-])o1
61

Continue with the next compound.
Return reported % inhibition Apo pol 5'. Input compound: COc1ccccc1CCC(=O)N1CCc2c(nc3cc(-c4ccccc4)[nH]n3c2=O)C1 44

----------
# subject_of_test: bacteriophage T4 DNA polymerase (Enterobacteria phage T4, UniProt P04415)
# Construct: made in house
# Sequence (P04415 whole entry): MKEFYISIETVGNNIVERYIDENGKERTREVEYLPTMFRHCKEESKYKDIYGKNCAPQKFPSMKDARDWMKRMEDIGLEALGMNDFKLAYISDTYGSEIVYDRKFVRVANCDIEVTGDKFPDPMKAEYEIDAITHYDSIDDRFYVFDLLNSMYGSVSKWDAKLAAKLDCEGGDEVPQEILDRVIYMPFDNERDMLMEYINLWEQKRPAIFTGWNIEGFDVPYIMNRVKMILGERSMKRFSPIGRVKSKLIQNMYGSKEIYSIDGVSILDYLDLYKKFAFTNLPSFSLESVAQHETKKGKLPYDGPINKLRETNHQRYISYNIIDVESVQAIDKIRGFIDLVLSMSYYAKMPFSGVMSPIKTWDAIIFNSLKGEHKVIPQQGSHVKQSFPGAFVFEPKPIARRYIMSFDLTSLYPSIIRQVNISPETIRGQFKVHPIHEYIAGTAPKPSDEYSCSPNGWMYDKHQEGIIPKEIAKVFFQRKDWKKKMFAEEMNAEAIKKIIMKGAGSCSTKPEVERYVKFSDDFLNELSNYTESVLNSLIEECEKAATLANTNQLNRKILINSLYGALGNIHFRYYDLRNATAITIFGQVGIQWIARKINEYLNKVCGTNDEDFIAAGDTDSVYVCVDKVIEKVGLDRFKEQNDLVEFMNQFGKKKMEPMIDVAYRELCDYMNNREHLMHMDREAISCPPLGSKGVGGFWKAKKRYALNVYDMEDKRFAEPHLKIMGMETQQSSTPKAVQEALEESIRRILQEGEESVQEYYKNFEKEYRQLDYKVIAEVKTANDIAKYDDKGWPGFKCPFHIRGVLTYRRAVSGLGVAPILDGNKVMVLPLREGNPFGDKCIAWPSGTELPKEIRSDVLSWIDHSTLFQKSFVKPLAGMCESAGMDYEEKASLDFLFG
# experiment_description: Counter-screen against bacteriophage T4 DNA polymerase
# Format: biochemical
# cond: DRC-2; 40'; concentration 2.5
observable: % inhibition T4 40' (%)
Numbers only, in %.

Worked examples, 2 compounds total:
O=C1c2ccccc2C(=O)N1Oc1ccc([N+](=O)[O-])c([N+](=O)[O-])c1 [Molecule 66]
-5
COc1cccc(C(=O)N2CCc3c(nc4cc(-c5ccccc5)[nH]n4c3=O)C2)c1OC [Molecule 22]
-13

Give one value of % inhibition T4 40' per listed compound.
1. Cc1ccc(-n2nnc(C(=O)O)c2-c2ccccn2)c(F)c1 [Molecule 54, Cc1ccc(c(c1)F)n1nnc(c1c1ccccn1)C(=O)O]
2. COc1ccc(-c2n[nH]cc2Oc2ccc(Cl)cc2)c(O)c1 [KU0029837]
3. COc1ccc(C(=O)N2CCc3c(nc4cc(-c5ccccc5Cl)[nH]n4c3=O)C2)cn1 [Molecule 26]
4. N#CC(=NNc1cc(C(F)(F)F)cc(C(F)(F)F)c1)C(=O)c1ccco1 [KU0264276]
5. Cc1ccc(C)n1-c1ccc(C(=O)NNC(=O)c2ccc3nccnc3c2)cc1 [Molecule 53]
6. CCOC(=O)C1=C2c3cc(OC)c(OC)cc3CC(C)(C)N2C(=O)C1=O [KU0193659]

1: 18; 2: -22; 3: -4; 4: 7; 5: 15; 6: 9
